- Tested on: A549 NSCLC
- assay explanation: NCI tumour cell line growth inhibition, 48 h
reported property: GI50

Answered examples (3):
>  <compound>
COc1ccc(/C=C/C(=O)c2sc(-n3nc(-c4ccccc4)cc3-c3ccccc3)nc2C)cc1

>  <study target>
A549 NSCLC

>  <reported property>
GI50

>  <measured>
> 100 µM

$$$$
>  <compound>
COc1nnc2ccc(N3CCC(c4ccc(OCCN5CCN(C)C(=O)[C@H]5C)cc4)CC3)nn12

>  <study target>
A549 NSCLC

>  <reported property>
GI50

>  <measured>
0.436 µM

$$$$
>  <compound>
COc1cc2c(=O)[nH]c3cc([N+](=O)[O-])ccc3c2cc1[N+](=O)[O-]

>  <study target>
A549 NSCLC

>  <reported property>
GI50

>  <measured>
4.11 µM

$$$$

Attention now shifts to the item below.
Exercise: State its GI50 on A549 NSCLC: O=C1Cc2cc(C(=O)NC3C[C@H]4CC[C@@H](C3)N4S(=O)(=O)CC3CCN(CCCC(F)(F)F)CC3)c(Cl)cc2N1 (some centres undefined)
Key: > 100 µM

###

- Test system: COLO 205 colon
- assay explanation: NCI tumour cell line growth inhibition, 48 h
reported property: TGI

// below: answered compounds
>  <cpd smiles>
O=C1NC(=NCCCc2ccccc2)S/C1=C\c1ccc2ncccc2c1

>  <measured>
> 20.7 µM

$$$$
>  <cpd smiles>
CC1(C)C(=O)C(C)(C)C1=S

>  <measured>
> 100 µM

$$$$
>  <cpd smiles>
CN(CC(=O)N(Cc1ccc(C2CCCCC2)cc1)c1ccc(C(=O)O)cc1)S(=O)(=O)c1c(F)c(F)c(F)c(F)c1F

>  <measured>
3.95 µM

$$$$
>  <cpd smiles>
CC1=C(C(=O)Nc2cc(F)c(F)cc2F)C(c2ccc([N+](=O)[O-])cc2)C(C(=O)Nc2cc(F)c(F)cc2F)=C(C)N1

>  <measured>
> 100 µM

$$$$

Exercise: Can you share its TGI? I mean this compound: Cc1nc2c(=S)n(C)ncc2[nH]1
Key: > 100 µM

###

- Test system: SF-539 CNS
- assay explanation: NCI tumour cell line growth inhibition, 48 h
Threshold rule: TGI greater than or equal to 10 µM is Y; below that, N.

>  <compound>
C[C@@H]1S[C@H](c2c(Cl)cccc2Cl)N2Cc3ccccc3N=C12

>  <label>
Y

$$$$
>  <compound>
COc1ccccc1C[C@@H]1OC2(C=CC(=O)C=C2)O[C@H]1Cc1ccccc1OC

>  <label>
Y

$$$$
>  <compound>
COC(=O)[C@H]1CCCN1C(=O)[C@H]1CCCN1C(=O)[C@H](Cc1c[nH]c2ccccc12)NC(=S)Nc1cc(C(F)(F)F)cc(C(F)(F)F)c1

>  <label>
Y

$$$$
>  <compound>
COc1cc2nc3cc([N+](=O)[O-])ccc3c(NCCNCC(C)(C)O)c2cc1OC

>  <label>
N

$$$$
>  <compound>
N#C/C(=C/NC(=S)c1ccncc1)C(N)=O

>  <label>
Y

$$$$

Okay, now this compound:
Exercise: Decide: is the reported value of TGI for CSc1c(C(=O)Nc2ccc(Cl)cc2)c(N)n(N)c(=O)c1C#N equal to or greater than 10 µM?
Key: Y

###

- Test system: CAKI-1 renal
- assay explanation: NCI tumour cell line growth inhibition, 48 h
reported property: TGI (µM)
Record the value in µM, omitting the unit from your answer.

Answered cases to consult:
>  <compound>
CCN1CCN(C(=O)[C@]23CCC(C)(C)C[C@@H]2C2=CC[C@@H]4[C@@]5(C)C/C(=C/c6ccncc6)C(=O)C(C)(C)[C@@H]5CC[C@@]4(C)[C@]2(C)CC3)CC1

>  <study target>
CAKI-1 renal

>  <reported property>
TGI

>  <measured>
2.95

$$$$
>  <compound>
c1ccc2c3c([nH]c2c1)C(c1ccc(C2NCCc4c2[nH]c2ccccc42)cc1)NCC3 (configuration not stated)

>  <study target>
CAKI-1 renal

>  <reported property>
TGI

>  <measured>
4.03

$$$$
>  <compound>
CC(=O)[CH-]C(=O)c1ccccc1.CC(=O)[CH-]C(=O)c1ccccc1.C[C@]12CCC(=O)C=C1CC[C@@H]1C2CC[C@@]2(C)C1CC[C@]2(C)[O-].C[C@]12CCC(=O)C=C1CC[C@@H]1C2CC[C@@]2(C)C1CC[C@]2(C)[O-].Cl.[Ti+4] (some centres not stated)

>  <study target>
CAKI-1 renal

>  <reported property>
TGI

>  <measured>
38.4

$$$$
>  <compound>
COc1cccc(/C=C2\COc3ccc(-c4ccccc4)cc3C2=O)c1

>  <study target>
CAKI-1 renal

>  <reported property>
TGI

>  <measured>
6.42

$$$$

Exercise: What value of TGI has been reported for the following compound? CSC(=Nc1ccccc1)/N=C(\SCc1ccccc1)N(C)C
Key: 2.79

###

- System: SK-OV-3 ovarian
- assay explanation: NCI tumour cell line growth inhibition, 48 h; in the data active = GI50 below about 0.43 µM; inactive = the rest
Hello, when you answer, please use one of the following outcomes: yes (1) for active, no (0) for inactive

Reference set (6 entries):
>  <molecule>
CN(Cc1cnc2nc(N)nc(N)c2n1)c1ccc(C(=O)NC(CCC(=O)O)C(=O)O)cc1Br (configuration not stated)

>  <study target>
SK-OV-3 ovarian

>  <label>
yes (1)

$$$$
>  <molecule>
COc1cc(-c2nn(-c3cccc(NC(=O)c4ccc(Cl)c(C(F)(F)F)c4)c3)cc2-c2ccncc2)ccc1Cl

>  <study target>
SK-OV-3 ovarian

>  <label>
no (0)

$$$$
>  <molecule>
Cn1cc(C2=C(c3cn(CCCCCSC(=N)N)c4ccccc34)C(=O)NC2=O)c2ccccc21

>  <study target>
SK-OV-3 ovarian

>  <label>
no (0)

$$$$
>  <molecule>
COc1cccc(/C=C2\COc3ccc(-c4ccccc4)cc3C2=O)c1

>  <study target>
SK-OV-3 ovarian

>  <label>
no (0)

$$$$
>  <molecule>
CC(=O)[CH-]C(=O)c1ccccc1.CC(=O)[CH-]C(=O)c1ccccc1.C[C@]12CCC(=O)C=C1CC[C@@H]1C2CC[C@@]2(C)C1CC[C@]2(C)[O-].C[C@]12CCC(=O)C=C1CC[C@@H]1C2CC[C@@]2(C)C1CC[C@]2(C)[O-].Cl.[Ti+4] (some centres not stated)

>  <study target>
SK-OV-3 ovarian

>  <label>
no (0)

$$$$
>  <molecule>
CCn1c(-c2nonc2N)nc2cncc(C(=O)N3CC[C@H](N)C3)c21

>  <study target>
SK-OV-3 ovarian

>  <label>
no (0)

$$$$

Exercise: Status in this test for COc1ccc(/C(C#N)=C2C=C/C(=N/O)c3ccccc3\2)cc1 ?
Key: yes (1)

Exercise: Called result for O=C1Cc2cc(C(=O)NC3C[C@H]4CC[C@@H](C3)N4S(=O)(=O)CC3CCN(CCCC(F)(F)F)CC3)c(Cl)cc2N1 (some centres not stated)
Key: no (0)

Exercise: What call does the record list for CCCCCCC[CH2][Sn]1([CH2]CCCCCCC)[O]C(=O)c2cccnc2[O]1 ?
Key: no (0)

Exercise: Recorded call for CC(=O)[O][Hg][c]1c(C)c(C)cc(C)c1C ?
Key: no (0)

Exercise: Outcome logged for CC[C@H](C)[C@H](NC(=O)CN(C)C)C(=O)N(C)[C@H](C[C@@H](OC(C)=O)c1nc(C(=O)NC23CC(C(=O)OC)(C2)C3)cs1)C(C)C in this assay:
Key: no (0)

Exercise: Hi, do you know how CN1CSC(=S)N(Cc2ccccc2)C1 came out in this test?
Key: no (0)

Exercise: Recorded test outcome, item N#CC1c2ccccc2C=CN1C(=O)N(c1ccccc1)c1ccccc1 (configuration not stated)
Key: no (0)

Exercise: What classification did COc1cc2c3c(n(C)c(=O)c2cc1OC)-c1ccc(C#N)cc1C3=O end up with in this test?
Key: no (0)

Exercise: Dear colleague, could you share the recorded outcome for CO[C@H]1C[C@@H]2CC[C@@H](C)[C@@](O)(O2)C(=O)C(=O)N2CCCC[C@H]2C(=O)O[C@H]([C@H](C)C[C@@H]2CC[C@@H](OCCO)[C@H](OC)C2)CC(=O)[C@H](C)C=C(C)[C@@H](O)[C@@H](OC)C(=O)[C@H](C)C[C@H](C)/C=C/C=C/C=C1C when you have a moment?
Key: yes (1)

Exercise: Kindly provide the recorded test outcome for the following molecule: Cn1c(-c2c(N)n(CCCN3CCOCC3)c3nc(C#N)c(C#N)nc23)nc2ccccc21
Key: no (0)

Exercise: How did this test come out for C=CC(=O)N1CC2(CC(n3nc(-c4ccc5c(cnn5C)c4)c(-c4c(Cl)c(C)cc5[nH]ncc45)c3C)C2)C1 ?
Key: no (0)

###

- Test system: NCI-H522 lung
- assay explanation: NCI tumour cell line growth inhibition, 48 h
reported property: TGI

Some entries whose results are on file:
>  <molecule>
CC(=O)NC(CC(C)C)C(=O)NC(Cc1ccccc1)C(=S)N1CCCC1 (stereo not given)

>  <reported property>
TGI

>  <measured>
> 100 µM

$$$$
>  <molecule>
O=C(NNc1nc(-c2ccccc2)cs1)C(F)(F)F

>  <reported property>
TGI

>  <measured>
> 100 µM

$$$$
>  <molecule>
CC(=O)c1c(C)[nH]c(-c2nc3ccc(N4CCN(C)CC4)cc3[nH]2)c1-c1ccccc1

>  <reported property>
TGI

>  <measured>
14.4 µM

$$$$

Exercise: What does the record list as TGI for Cc1ccc(NC(=O)C(=O)CC(=O)c2sc(Nc3c(C)cccc3C)nc2C)cc1C ?
Key: > 100 µM

Exercise: Sample O=[N+]([O-])c1ccc(O)c(/C=N/NC(=S)N2CCCCC2)c1 — what was its TGI?
Key: > 45.3 µM
